From: PubChem BioAssay (NCI)

Experiment: NCI Yeast Anticancer Drug Screen. Data for the mlh1 rad18 strain (AID 175)
Conditions: S. cerevisiae mlh1 rad18 strain growth inhibition; at 50.0 µM; hits give high values
Compounds without any hit were thinned out: in the full panel of roughly 79,000, 15% have a hit.
For each entry below, report its growth inhibition value.
Quick reminder: number only, in %, skip the unit.

// recorded growth inhibition for COC1C(=O)CCC2(CO2)C1(O)C1(C)OC1CCC(C)C (stereo not drawn) : -4.55

// recorded growth inhibition for CCN1CCCC(N2c3ccccc3Sc3ccccc32)C1 (stereo not drawn) : -4

// recorded growth inhibition for CC(=O)N=c1ccc2nc3c(cc(N)c4ccccc43)oc-2c1 : 33.8

// recorded growth inhibition for COC(=O)c1ccc([N+](=O)[O-])c(C)c1 : -27.6

// recorded growth inhibition for CC(=O)OC(C)c1cccc(C#N)c1 (stereo not drawn) : 22

// recorded growth inhibition for CCN(CC)CCCC(C)NC(=S)N/N=C(\C)c1ccccn1 (stereo not drawn) : 42.7

// recorded growth inhibition for O=C(O)c1cccc(-n2ncc(Cl)c(Cl)c2=O)c1 : 19.6

// recorded growth inhibition for C#CCSc1nnnn1-c1ccccc1 : 12.4

// recorded growth inhibition for COc1ccc2c(ccc[n+]2C)c1 : -25.4

// recorded growth inhibition for NC(=S)N/N=C/c1ccc(OC(=O)COc2ccc(Cl)cc2)cn1 : 9.5

// recorded growth inhibition for C=COC(=O)C(C)(C)C : 31.5

// recorded growth inhibition for Cc1[nH]n(-c2ccccc2)c(=O)c1C=NC(=S)C(N)=S : -20.5

// recorded growth inhibition for Cc1ccc(C(C)C)c(OCC(=O)O)c1 : 25.6

* * *

Experiment: NCI Yeast Anticancer Drug Screen. Data for the rad50 strain (AID 155);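 further: 0% = growth of vehicle-only cultures of the same strain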
Conditions: S. cerevisiae rad50 strain growth inhibition; at 50.0 µM; hits give high values
Compounds without any hit were thinned out: in the full panel of roughly 79,000, 15% have a hit.
Respond with True for growth inhibition values of 10% and above, False for values below.

Asked: Is growth inhibition for CS(=O)CC(=N\O)/C(CS(C)=O)=N\O (centres undefined) at or above 10%?
Given back: False

Asked: Is growth inhibition for C=CCC(OC(C)=O)c1ccc(OC)c(OC)c1 (centres undefined) at or above 10%?
Given back: True

Asked: Is growth inhibition for CC12CCC3c4ccc(O)cc4CCC3C1CCC2=O (centres undefined) at or above 10%?
Given back: True

Asked: Is growth inhibition for COc1ccc(-c2csc(NC(=O)Nc3nc(-c4ccc(OC)cc4)cs3)n2)cc1 at or above 10%?
Given back: False

Asked: Is growth inhibition for COC(=O)C1=C(C)C(=O)CC1 at or above 10%?
Given back: True

Asked: Is growth inhibition for CNc1ccccc1C(=O)N/N=C/C=C/c1ccccc1 at or above 10%?
Given back: True

Asked: Is growth inhibition for S=C=Nc1ccc2ccccc2c1 at or above 10%?
Given back: True

Asked: Is growth inhibition for CN(C(=S)S(=O)(=O)C12CC3CC(CC(C3)C1)C2)c1ccccc1 at or above 10%?
Given back: True

Asked: Is growth inhibition for C=CCN1CCCC1=O at or above 10%?
Given back: False

Asked: Is growth inhibition for NC(CO)(CO)c1ccccc1 at or above 10%?
Given back: True

Asked: Is growth inhibition for CC1(c2ccccc2)CO1 (centres undefined) at or above 10%?
Given back: False

Asked: Is growth inhibition for NC(=S)N/N=C/c1ccc(Cl)cc1 at or above 10%?
Given back: True

Asked: Is growth inhibition for CCCCn1cnc2c(=O)[nH]cnc21 at or above 10%?
Given back: False

Asked: Is growth inhibition for COc1cccc(N=CNc2cccc(OC)c2)c1 at or above 10%?
Given back: False
